TESTED_ON: Thyrotropin-releasing hormone receptor (Homo sapiens)
ASSAY_COMMENT: qHTS assay to identify small molecule agonists of the thyrotropin-releasing hormone receptor (TRHR) signaling pathway (AID 1346891);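 note: HEK293 cells expressing TRHR with calcium dye readout; % is set by controls: 0 for no effect and ±100 for the full control effect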
RUN_PARAMETERS: TRHR-HEK293 calcium fluorescence, agonist mode; series mostly up to 57.6 µM
Active and inactive are the calls of the source. Calls come from the whole dose curve.
MEASUREMENT_TYPE: activation

                                    molecule  measurement_type                           result
 0  CN1Cc2cc(C(=O)N3CCC(C4CCNCC4)CC3)ccc2NC(CC(=O)O)C1=O (configuration not stated)        activation                         inactive
 1          CCN(CC)CCNC(=O)c1cc(Br)c(N)cc1OC        activation                         inactive
 2                       COc1cc(Cl)c(OC)cc1N        activation                         inactive
 3  CCC(=O)O[C@]1(C(=O)CCl)[C@@H](C)C[C@H]2[C@@H]3CCC4=CC(=O)C=C[C@]4(C)[C@@]3(F)[C@@H](O)C[C@@]21C        activation                         inactive
 4  O=C1OC(=O)C2C3C=CC(C3)C12 (configuration not stated)        activation                         inactive
 5                Brc1c2ccccc2c(Br)c2ccccc12        activation  0.0356% [at 5.23 µM] (inactive)
 6                             C/C=C/C(=O)CC        activation  -0.663% [at 11.8 µM] (inactive)
 7                 Cc1[nH]c(C)c(Cl)c(=O)c1Cl        activation   -1.18% [at 11.8 µM] (inactive)
 8  C/C=C(/C(=C/C)c1ccc(OC(C)=O)cc1)c1ccc(OC(C)=O)cc1        activation                         inactive
 9              O=[N+]([O-])c1ccc2[nH]ncc2c1        activation                         inactive
10                   C=CC(=O)OCCOCCOC(=O)C=C        activation                         inactive
11  CCCCCCCCO[C@@H]1O[C@H](CO)[C@@H](O)[C@H](O)[C@H]1O        activation                         inactive
12                     CC(C)(CO)[N+](=O)[O-]        activation                         inactive
13  CCOc1ccc(N=Nc2ccc(/C=C/c3ccc(N=Nc4ccc(OCC)cc4)cc3S(=O)(=O)O)c(S(=O)(=O)O)c2)cc1        activation                         inactive
14                         C=C(C)C(=O)OCCOCC        activation                         inactive
15  O=C(c1ccc(F)cc1)C1CCN(CCn2c(=S)[nH]c3ccccc3c2=O)CC1        activation                         inactive
16              CN(C)CCCN1c2ccccc2Sc2ccccc21        activation                         inactive

====

ASSAY_COMMENT: qHTS assay for identifying genotoxic compounds that show differential cytotoxicity against isogenic chicken DT40 cell lines with known DNA damage response pathways - Rad54/Ku70 mutant cell line (AID 743015); note: nearly all actives have a fitted effect of over 60% in size
RUN_PARAMETERS: DT40 Rad54/Ku70 mutant viability, CellTiter-Glo, 40 h; series mostly up to 66.8 µM
Inconclusive results are not listed. Active and inactive are the calls of the source. Calls follow the shape of the dose curve; as a rule, active = well fitted cell-killing curve with a large enough effect in the repeat runs; inconclusive = weak or mixed curves; inactive = no such curve, though single readings can be large or run the other way.
Classes used: active, inactive

                                    molecule  class_name
 0                           C=C(C)C(=O)OCCO    inactive
 1                 O=C1CCCCCCCCCCCC(=O)OCCO1      active
 2                                C1CCCNCCC1    inactive
 3  C[N+](C)(C)CCOC(=O)CCC(=O)OCC[N+](C)(C)C    inactive
 4                  Cc1c(N)cccc1[N+](=O)[O-]    inactive
 5          CN1CCC(=C2c3ccccc3Sc3ccccc32)CC1      active
 6          CCN(CC)CCNC(=O)c1cc(Br)c(N)cc1OC    inactive
 7  CCCOC(C(=O)OC1CCN(C)CC1)(c1ccccc1)c1ccccc1      active
 8  CCOC(=O)COC(=O)c1cc(Oc2ccc(C(F)(F)F)cc2Cl)ccc1[N+](=O)[O-]      active
 9  Cc1cc(N)c2cc(NC(=O)Nc3ccc4nc(C)cc(N)c4c3)ccc2n1      active
10  CN(C)c1ccc(C(c2ccccc2)c2ccc(N(C)C)cc2)cc1      active
11  Cc1oc2c(NC(=O)c3c(Cl)cccc3Cl)cccc2c1C(C)(C)O      active
12  OC(CN1CCC(Cc2ccc(F)cc2)CC1)c1ccc(Cl)cc1 (stereo unspecified)      active
13  O=C(O)c1ccc(-n2nc(-c3ccccc3O)nc2-c2ccccc2O)cc1      active
14             Nc1ccc(S(=O)(=O)Nc2ccccc2)cc1    inactive
15         COc1ccc(C(=O)c2ccc(OC)cc2O)c(O)c1    inactive
16  NC(=O)C(c1ccccc1)(c1ccccc1)[C@@H]1CCN(CCc2ccc3c(c2)CCO3)C1      active
17          O=C(O)c1ccc(S(=O)(=O)O)cc1C(=O)O    inactive
18           CCOC(=O)NCCOc1ccc(Oc2ccccc2)cc1      active
19                         C=C(C)C(=O)OCCOCC    inactive
20             O=C(NCCO[N+](=O)[O-])c1cccnc1    inactive

====

TESTED_ON: Nuclear receptor ROR-gamma (Homo sapiens) (UniProt P51449)
ASSAY_COMMENT: qHTS assay to identify small molecule antagonists of the retinoid-related orphan receptor gamma (ROR-gamma) signaling pathway (AID 1159521; note: nearly all actives have a fitted effect of over 50% in size; note: potency is the fitted concentration of half-maximal effect)
RUN_PARAMETERS: Tet-on RORgamma CHO cells, RORE-luciferase, 16 h; series mostly up to 92.4 µM
Results filed as inconclusive are left out. The source made the active and inactive calls. Calls follow the shape of the dose curve; as a rule, active = well fitted inhibition curve with a large enough effect in the repeat runs; inconclusive = weak or mixed curves, or effect the other way; inactive = no such curve, though single readings can be large or run the other way.
MEASUREMENT_TYPE: Potency

>>> df
                            compound_smiles            result
0                                CCCCCCCC#N          inactive
1        Clc1ccc2c(c1)CCc1cccnc1C2=C1CCNCC1          inactive
2  C#C[C@]1(O)CC[C@H]2[C@@H]3CCc4cc(OC5CCCC5)ccc4[C@H]3CC[C@@]21C  10.6 µM (active)

====

ASSAY_COMMENT: qHTS RealTime-Glo MT Cell Viability Assay in HEK293 cells - 16 hour (AID 1224872); note: nearly all actives have a fitted effect of over 50% in size
RUN_PARAMETERS: RealTime-Glo luminescence; series mostly up to 76.8 µM
Inconclusive results are not listed. The source made the active and inactive calls. Calls follow the shape of the dose curve; as a rule, active = well fitted cell-killing curve with a large enough effect in the repeat runs; inconclusive = weak or mixed curves, or effect the other way; inactive = flat fitted curve, though single readings scatter.
Classes used: active, inactive

                                    compound  class_name
 0                       CCCCCCCCCCCc1ccccc1    inactive
 1       Nc1c(CC(=O)O)cccc1C(=O)c1ccc(Br)cc1    inactive
 2             O=C(NCCO[N+](=O)[O-])c1cccnc1    inactive
 3                              C/C=C/C=C/CO    inactive
 4                                     CCCCO    inactive
 5         O=CC1CC=CCC1 (stereo unspecified)    inactive
 6  COc1cc2c(cc1OC)C(C(C(=O)N(CCc1ccc(OC)c(OC)c1OC)CCc1ccc(OC)c(OC)c1OC)c1ccccc1)=NCC2 (stereo unspecified)      active
 7  CC(C)OC(=O)C(C)N(C(=O)c1ccccc1)c1ccc(F)c(Cl)c1 (stereo unspecified)    inactive
 8            CN1CCN(C(c2ccccc2)c2ccccc2)CC1    inactive
 9                             O=C(O)c1ccco1    inactive
10                          O=C(O)c1ccccc1Cl    inactive
11                                  COC(C)OC    inactive
12  CCOCC(O)COc1ccc(NC(=O)CC[S+](C)C)cc1 (stereo unspecified)    inactive
13         Nc1ccc([N+](=O)[O-])c(C(F)(F)F)c1    inactive
14         O=C(O)C1(C(=O)Nc2ccc(Cl)cc2Cl)CC1    inactive
15                CCCCCCCCCc1ccc(OCCOCCO)cc1      active
16                    CC1=CC[C@H](C(C)C)C=C1    inactive
17       CCCCCC[C@@H](O)C/C=C\CCCCCCCC(=O)OC    inactive
18              CCCCCCCC/C=C\CCCCCCCC(=O)OCC    inactive
19  OC[C@H]1O[C@@H](OCCc2ccc(O)cc2)[C@H](O)[C@@H](O)[C@@H]1O    inactive
20  CC1(c2ccccc2)OC(C(=O)O)=CC1=O (stereo unspecified)    inactive
